# System: Nocardia asteroides (clinical isolate)
# Test: Cell viability IC50 screen
# Condition set: read-out: IC50 without a β-lactam, Nast
Recorded metric: IC50

- Compound: "CCn1c(-c2nonc2N)nc2c(C#CC(C)(C)O)nc(OC[C@H](N)c3ccccc3)cc21 [GSK943949A]"
  Recorded metric: "IC50"
  Observed: "24 to 100 µM"
- Compound: "CCn1c(-c2nonc2N)nc2c(C#CC(C)(C)O)ncc(OC[C@H]3CCCNC3)c21 [GSK690693]"
  Recorded metric: "IC50"
  Observed: "24 to 100 µM"
- Compound: "CCn1c(-c2nonc2N)nc2c(C#CC(C)(C)O)nc(O[C@@H](CN)c3ccccc3)cc21 [GSK1007102B]"
  Recorded metric: "IC50"
  Observed: "24 to 100 µM"

Look up IC50 for this compound: CCn1c(-c2nonc2N)nc2c(C#CC(C)(C)O)ncc(OCC3CCNCC3)c21 [GSK554170A]
24 to 100 µM
